target: Glutamate receptor 2 (Homo sapiens, UniProt P42262); assay: Positive modulation of human GluA2 flip receptor by FLIPR assay relative to cyclothiazide; parameters: concentration or dose not given beside the values
Sequence (P42262 whole entry): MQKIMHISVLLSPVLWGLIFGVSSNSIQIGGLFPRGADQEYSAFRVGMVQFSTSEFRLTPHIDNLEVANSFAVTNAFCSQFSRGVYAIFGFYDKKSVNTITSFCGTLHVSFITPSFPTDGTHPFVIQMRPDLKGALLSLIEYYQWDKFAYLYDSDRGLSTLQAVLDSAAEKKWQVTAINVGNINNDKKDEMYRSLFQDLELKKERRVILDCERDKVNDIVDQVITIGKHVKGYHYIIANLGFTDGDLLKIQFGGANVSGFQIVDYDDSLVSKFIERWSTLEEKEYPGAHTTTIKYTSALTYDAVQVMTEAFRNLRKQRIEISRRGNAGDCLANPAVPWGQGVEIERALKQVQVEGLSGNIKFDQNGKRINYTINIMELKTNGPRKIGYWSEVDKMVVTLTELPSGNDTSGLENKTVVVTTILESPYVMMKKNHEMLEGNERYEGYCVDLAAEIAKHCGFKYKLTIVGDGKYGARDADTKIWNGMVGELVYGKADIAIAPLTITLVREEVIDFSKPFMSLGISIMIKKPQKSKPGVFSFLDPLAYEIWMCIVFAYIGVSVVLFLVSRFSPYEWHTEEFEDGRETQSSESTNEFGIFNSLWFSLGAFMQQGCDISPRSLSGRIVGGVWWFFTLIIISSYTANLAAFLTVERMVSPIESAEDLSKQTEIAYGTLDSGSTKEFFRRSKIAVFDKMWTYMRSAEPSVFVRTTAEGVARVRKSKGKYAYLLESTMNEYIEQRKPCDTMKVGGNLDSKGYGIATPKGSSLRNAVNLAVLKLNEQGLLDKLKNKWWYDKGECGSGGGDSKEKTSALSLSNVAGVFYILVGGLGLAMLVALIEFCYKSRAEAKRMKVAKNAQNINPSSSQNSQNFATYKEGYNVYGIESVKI
For each record, check the reported Activity: if it is below 80% write 1, else write -1.

* CC(=O)c1cccc(-c2ccc(C3COC[C@H]3NS(=O)(=O)C(C)C)cc2)c1 (single isomer, unassigned) | -1
* CC(C)S(=O)(=O)N[C@@H]1COCC1c1ccc(-c2ccc(F)nc2)cc1 (single isomer, unassigned) | -1
* CC(C)S(=O)(=O)N[C@H]1CN(C)CC1c1ccc(-c2cccnc2)cc1 (single isomer, unassigned) | -1
* CC(C)S(=O)(=O)N[C@@H]1COCC1c1ccc(-c2cncc(F)c2)cc1 (single isomer, unassigned) | -1
* CC(C)S(=O)(=O)N[C@H]1CN(C)CC1c1ccc(-c2ccccc2F)cc1 (single isomer, unassigned) | 1
* CC(C)N1CC(c2ccc(-c3ccc(C#N)cc3)cc2)[C@@H](NS(=O)(=O)C(C)C)C1 (single isomer, unassigned) | 1
* CCN1CC(c2ccc(-c3ccc(C#N)cc3)cc2)[C@@H](NS(=O)(=O)C(C)C)C1 (single isomer, unassigned) | -1
* CCN1CC(c2ccc(-c3cccc(NS(C)(=O)=O)c3)cc2)[C@@H](NS(=O)(=O)C(C)C)C1 (single isomer, unassigned) | -1
* CC(C)S(=O)(=O)N[C@H]1CN(C)CC1c1ccc(-c2cccc(NS(C)(=O)=O)c2)cc1 (single isomer, unassigned) | -1
* CC(C)S(=O)(=O)N[C@H]1CN(C)CC1c1ccc(-c2cccc(S(C)(=O)=O)c2)cc1 (single isomer, unassigned) | 1
* CC(C)S(=O)(=O)N[C@H]1CN(C)CC1c1ccc(-c2ccsc2)cc1 (single isomer, unassigned) | -1
* CC(C)N1CC(c2ccc(-c3cccc(NS(C)(=O)=O)c3)cc2)[C@@H](NS(=O)(=O)C(C)C)C1 (single isomer, unassigned) | -1
* CC(C)S(=O)(=O)N[C@H]1CN(C)CC1c1ccc(-c2cccc(C(F)(F)F)c2)cc1 (single isomer, unassigned) | 1
* CC(C)S(=O)(=O)N[C@H]1CN(c2ccccc2)CC1c1ccc(-c2cccc(NS(C)(=O)=O)c2)cc1 (single isomer, unassigned) | 1

From: ChEMBL document CHEMBL1287696
